Literature compilation of pIC50 measurements on ROCK2 (Homo sapiens, UniProt O75116).
Sequence (O75116 whole entry, species assumed): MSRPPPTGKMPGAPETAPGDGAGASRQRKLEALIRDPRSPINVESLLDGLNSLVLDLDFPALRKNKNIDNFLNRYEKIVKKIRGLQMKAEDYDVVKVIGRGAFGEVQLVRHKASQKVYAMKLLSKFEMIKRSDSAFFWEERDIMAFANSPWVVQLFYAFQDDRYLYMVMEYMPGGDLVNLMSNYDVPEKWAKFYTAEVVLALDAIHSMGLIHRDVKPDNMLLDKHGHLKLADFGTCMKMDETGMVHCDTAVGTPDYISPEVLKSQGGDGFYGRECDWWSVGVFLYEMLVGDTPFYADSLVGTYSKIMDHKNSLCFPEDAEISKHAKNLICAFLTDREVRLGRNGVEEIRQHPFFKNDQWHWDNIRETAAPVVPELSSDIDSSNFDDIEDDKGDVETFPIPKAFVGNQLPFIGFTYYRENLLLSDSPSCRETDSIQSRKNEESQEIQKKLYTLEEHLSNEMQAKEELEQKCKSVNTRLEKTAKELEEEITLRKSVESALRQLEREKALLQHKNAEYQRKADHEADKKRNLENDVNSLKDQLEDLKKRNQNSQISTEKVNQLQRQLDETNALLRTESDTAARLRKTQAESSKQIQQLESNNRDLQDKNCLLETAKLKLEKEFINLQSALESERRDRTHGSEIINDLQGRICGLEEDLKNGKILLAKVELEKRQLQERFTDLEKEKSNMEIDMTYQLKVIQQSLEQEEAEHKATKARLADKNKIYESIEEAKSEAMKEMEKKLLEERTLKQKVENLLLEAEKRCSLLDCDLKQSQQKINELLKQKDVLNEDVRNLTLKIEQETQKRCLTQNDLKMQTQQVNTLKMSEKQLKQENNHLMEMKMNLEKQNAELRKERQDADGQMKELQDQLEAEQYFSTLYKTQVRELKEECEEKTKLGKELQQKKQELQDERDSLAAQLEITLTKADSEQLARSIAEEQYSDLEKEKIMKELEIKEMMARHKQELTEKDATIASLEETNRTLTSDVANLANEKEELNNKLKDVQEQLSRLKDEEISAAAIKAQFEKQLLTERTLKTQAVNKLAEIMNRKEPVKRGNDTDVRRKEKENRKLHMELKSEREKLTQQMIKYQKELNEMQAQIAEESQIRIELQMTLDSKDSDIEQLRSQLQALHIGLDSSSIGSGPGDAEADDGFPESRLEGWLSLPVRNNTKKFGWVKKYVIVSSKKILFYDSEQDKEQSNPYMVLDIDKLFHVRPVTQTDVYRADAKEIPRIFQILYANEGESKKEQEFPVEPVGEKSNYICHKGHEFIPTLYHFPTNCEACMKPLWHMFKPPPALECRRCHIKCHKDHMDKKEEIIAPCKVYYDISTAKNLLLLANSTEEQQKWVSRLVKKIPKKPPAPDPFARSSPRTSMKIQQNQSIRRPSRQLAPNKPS
pIC50: −log10 of the molar value.
Classification scheme (pIC50): band 1 = under 7, band 2 = from 7 up to 8, band 3 = 8 and over

Field: example entries. Status: answers known.
COMPOUND	STUDY SYSTEM	CLASS ASSIGNMENT
O=C(C1CC(F)(F)C1)N1Cc2ccc(-c3nc(Nc4ccc(-c5cn[nH]c5)cc4)c4cc[nH]c4n3)cc2C1	ROCK2 (Homo sapiens, UniProt O75116)	band 2
COc1cc(N2CCC3(CCN(C(=O)c4ccc(N5CCN(Cc6cccnc6)CC5)cc4)CC3)C2=O)ccc1-c1cn[nH]c1	ROCK2 (Homo sapiens, UniProt O75116)	band 3
COc1cccc(Cn2ccn(-c3ccc(-c4cn[nH]c4)c(OC)n3)c2=O)c1	ROCK2 (Homo sapiens, UniProt O75116)	band 3
O=C(c1cc2ccc(-c3nccc(Nc4ccc(-c5cn[nH]c5)cc4)n3)cc2[nH]1)N1CCC(F)C1 (stereo not drawn)	ROCK2 (Homo sapiens, UniProt O75116)	band 2
COc1cc(-c2cn[nH]c2)ccc1C(=O)N[C@H](CO)[C@H](O)c1ccccc1	ROCK2 (Homo sapiens, UniProt O75116)	band 2

Incoming: Band of NC(=O)c1cccnc1O[C@H]1C[C@]2(C1)C[C@H](N1C(=O)NC(CCCS(N)(=O)=O)C1=O)C2 (stereo partly drawn) ?
Outgoing: band 1

Incoming: Band of `NC(=O)c1cccnc1Oc1ccc(CC(=O)Nc2nc3cc(F)ccc3n2CC2CC2)cc1F` ?
Outgoing: band 2

Incoming: Band of CC(C)(O)CCC1NC(=O)N([C@H]2C[C@@]3(C[C@H](Oc4ncccc4C(N)=O)C3)C2)C1=O (stereo partly drawn) ?
Outgoing: band 1

Incoming: Band of `CN(C)Cc1ccc(CNC(=O)c2cccc([C@@H](CO)NC(=O)c3ccc(-c4ccncc4)cn3)c2)cc1` ?
Outgoing: band 3
